target or test system: UniProtKB P17252
pIC50: −log10 of the molar value.
Label satisfied when pIC50 is at or above 8; otherwise label not satisfied.

# bool: pIC50 of CN1CCCC1CCNc1ccnc(Nc2cccc(Cl)c2)n1 (centres unmarked) >= 8
satisfied

# bool: pIC50 of Clc1cc(Nc2nccc(NCCCN3CCCC3)n2)ccc1OCc1ccccc1 >= 8
not satisfied

# bool: pIC50 of Fc1cccc(Nc2nccc(NCCCN3CCOCC3)n2)c1 >= 8
not satisfied

# bool: pIC50 of CN1CCN(CCCNc2ccnc(Nc3cccc(Cl)c3)n2)CC1 >= 8
satisfied

# bool: pIC50 of c1ccc(Oc2cccc(Nc3nccc(NCCCN4CCOCC4)n3)c2)cc1 >= 8
not satisfied

# bool: pIC50 of Clc1cccc(Nc2nccc(NCC3CNCCO3)n2)c1 (centres unmarked) >= 8
not satisfied

# bool: pIC50 of CN1CCN(S(=O)(=O)c2cccc(Nc3nccc(NCCCN4CCOCC4)n3)c2)CC1 >= 8
not satisfied

# bool: pIC50 of O=C(Nc1cccc(Nc2nccc(NCCCN3CCOCC3)n2)c1)c1cccnc1 >= 8
not satisfied

# bool: pIC50 of Clc1cccc(Nc2nccc(NCCCN3CCOCC3)n2)c1 >= 8
satisfied

# bool: pIC50 of CN1C2CCC1CC(Nc1ccnc(Nc3cccc(Cl)c3)n1)C2 (centres unmarked) >= 8
satisfied

# bool: pIC50 of c1cc(Nc2nccc(NCCCN3CCOCC3)n2)cc(-c2nc3ccccc3s2)c1 >= 8
not satisfied

# bool: pIC50 of O=S(=O)(Nc1ccccc1)c1cccc(Nc2nccc(NCCCN3CCOCC3)n2)c1 >= 8
not satisfied

# bool: pIC50 of Clc1cccc(Nc2nccc(NCC3CCNCC3)n2)c1 >= 8
not satisfied

# bool: pIC50 of Cc1cccc(Nc2nccc(NCCCN3CCCC3)n2)c1 >= 8
not satisfied

# bool: pIC50 of Clc1cccc(Nc2nccc(NCCCN3CCCC3)n2)c1 >= 8
satisfied

# bool: pIC50 of c1cncc(-c2cccc(Nc3nccc(NCCCN4CCOCC4)n3)c2)c1 >= 8
not satisfied

# bool: pIC50 of c1ccc(-c2cccc(Nc3nccc(NCCCN4CCOCC4)n3)c2)cc1 >= 8
satisfied

# bool: pIC50 of FC(F)(F)c1cc(Nc2nccc(NCCCN3CCOCC3)n2)cc(C(F)(F)F)c1 >= 8
not satisfied

# bool: pIC50 of O=[N+]([O-])c1cccc(Nc2nccc(NCCCN3CCCC3)n2)c1 >= 8
satisfied

# bool: pIC50 of FC(F)(F)c1cccc(Nc2nccc(NCCCN3CCCC3)n2)c1 >= 8
satisfied
